# measurement-target: Mitogen-activated protein kinase 3 (Homo sapiens) (UniProt P27361);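 further: each value is a mean inhibition figure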
# Sequence (P27361 whole entry): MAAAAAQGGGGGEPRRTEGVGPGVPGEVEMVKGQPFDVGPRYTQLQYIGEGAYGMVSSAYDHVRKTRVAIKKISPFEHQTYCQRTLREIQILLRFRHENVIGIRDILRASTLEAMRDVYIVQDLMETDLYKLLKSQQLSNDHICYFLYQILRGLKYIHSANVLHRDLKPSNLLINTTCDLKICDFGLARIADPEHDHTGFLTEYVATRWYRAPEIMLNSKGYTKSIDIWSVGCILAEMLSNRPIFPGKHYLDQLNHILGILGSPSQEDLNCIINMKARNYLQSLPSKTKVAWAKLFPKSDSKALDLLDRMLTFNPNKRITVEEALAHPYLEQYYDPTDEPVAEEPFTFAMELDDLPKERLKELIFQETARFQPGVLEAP
# details: at 0.1 µM
property-label: inhibition (%)
Lab book: enter the figure in %, no units written.

- compound: "CNC(=O)c1ncccc1Nc1nc(Nc2cc3c(cc2OC)CCCN3C(=O)CN(C)C)nc2[nH]ccc12"
  inhibition, %: 2.44

Inquiry: Form field: reported inhibition of CC1=C(C(=O)Nc2ccc3[nH]nc(C)c3c2)C(c2ccc(C(F)(F)F)cc2)CC(=O)N1 (configuration not stated)
Reply text: 3.88

Inquiry: Form field: reported inhibition of CCCNc1cccc(-n2ncc3c(N/N=C/c4ccncc4)ncnc32)c1
Reply text: 1.28

Inquiry: Form field: reported inhibition of Fc1ccc(Nc2nccc(-c3c(-c4ccc(C(F)(F)F)cc4)nn4ncccc34)n2)cc1F
Reply text: 1.81

Inquiry: Form field: reported inhibition of CN(C)CCNC(=O)Nc1ccc(N(C)c2ccnc(Nc3ccc(CS(C)(=O)=O)cc3)n2)cc1
Reply text: 2.98

Inquiry: Form field: reported inhibition of O=C1Nc2ccccc2/C1=C1\CCc2cc(O)ccc21
Reply text: 5.82

Inquiry: Form field: reported inhibition of CCOc1ccc2c(-c3ccnc(Nc4cc(OC)cc(C(F)(F)F)c4)n3)cnn2n1
Reply text: 0.36

Inquiry: Form field: reported inhibition of NC(=O)c1ccc2c(-c3ccnc(NCCCO)n3)c(-c3ccc(F)cc3)nn2c1
Reply text: 4.06

Inquiry: Form field: reported inhibition of CS(=O)(=O)Nc1ccc(-c2ccc3c(NC(=O)C4CC4)n[nH]c3c2)cc1
Reply text: 2.3

---

# measurement-target: Serine/threonine-protein kinase PAK 5 (Homo sapiens)
# details: at 1 µM
# Description: GSK_PKIS: PAK5 mean inhibition at 1 uM [Nanosyn]
property-label: inhibition (%)
Lab book: enter the figure in %, no units written.

Please review the entries below; each comes with its answer.
- smiles-notation: "CCCNc1cccc(-n2ncc3c(N/N=C/c4ccncc4)ncnc32)c1"
  property-label: "inhibition"
  measured-result: 5.05
- smiles-notation: "CCn1c(-c2nonc2N)nc2cncc(C(=O)NCCNC)c21"
  property-label: "inhibition"
  measured-result: 7.69
- smiles-notation: "COc1ccc2ncn(-c3cc(O[C@H](C)c4ccccc4C(F)(F)F)c(C(N)=O)s3)c2c1"
  property-label: "inhibition"
  measured-result: -1.3
- smiles-notation: "COc1cc2c(cc1Nc1nc(Nc3cccc(F)c3C(N)=O)c3cc[nH]c3n1)N(C(=O)CN1CCN(C(C)C)CC1)CC2"
  property-label: "inhibition"
  measured-result: 3.7
- smiles-notation: "COC(=O)Nc1nc2cc(Oc3ccc(NC(=O)Nc4ccccc4)cc3)ccc2[nH]1"
  property-label: "inhibition"
  measured-result: -3.97
- smiles-notation: "CNC(=O)c1sc(-n2cnc3cc(OC)c(OC)cc32)cc1OCc1ccccc1C(F)(F)F"
  property-label: "inhibition"
  measured-result: 0.17
- smiles-notation: "CCS(=O)(=O)c1ccc(OC)c(Nc2ncc(-c3cccc(C(C)=O)c3)o2)c1"
  property-label: "inhibition"
  measured-result: 8.72
- smiles-notation: "CN1CCN(Cc2ccc(-c3cc4ncnc(Nc5ccc(OCc6cccc(F)c6)c(Cl)c5)c4s3)o2)CC1"
  property-label: "inhibition"
  measured-result: 5.21

Inquiry: Kindly state the measured inhibition obtained for OCCCNc1nccc(-c2c(-c3ccc(F)cc3)nn3cc(C(F)(F)F)ccc23)n1 with Serine/threonine-protein kinase PAK 5 (Homo sapiens).
Reply text: -5.58

Inquiry: Kindly state the measured inhibition obtained for CS(=O)(=O)CCNCc1ccoc1-c1ccc2ncnc(Nc3ccc(OCc4ccccc4)cc3)c2c1 with Serine/threonine-protein kinase PAK 5 (Homo sapiens).
Reply text: 3.51

Inquiry: Kindly state the measured inhibition obtained for CNC(=O)c1ncccc1Nc1nc(Nc2cc3c(cc2OC)CCCN3C(=O)CN(C)C)nc2[nH]ccc12 with Serine/threonine-protein kinase PAK 5 (Homo sapiens).
Reply text: -0.15

Inquiry: Kindly state the measured inhibition obtained for Cc1nnc(-c2cccc(-c3ccc(C(=O)NCC4CC4)cc3)c2)o1 with Serine/threonine-protein kinase PAK 5 (Homo sapiens).
Reply text: 2.3

Inquiry: Kindly state the measured inhibition obtained for Cc1cc(O)cc(C)c1/C=C/c1cncc(C(=O)OC(C)(C)C)c1 with Serine/threonine-protein kinase PAK 5 (Homo sapiens).
Reply text: 4.26

Inquiry: Kindly state the measured inhibition obtained for CS(=O)(=O)Nc1ccc(-c2ccc3c(NC(=O)C4CC4)n[nH]c3c2)cc1 with Serine/threonine-protein kinase PAK 5 (Homo sapiens).
Reply text: 0.91
